Tested on: rodent lifetime carcinogenesis bioassay, tumor incidence TD50
protocol: carcinogenic potency in animals, long-term in vivo studies, CPDB compilation (AID 1745844)
measurementContext: mouse; strain BALB/c; males; i.p.; site: lymphoreticular system; lesion: several types; types named in the paper; dosed 50 weeks; study length 67 weeks
measuredEndpoint: TD50

Q: Which TD50 reading was recorded for the compound `Nc1ncn([C@@H]2O[C@H](CO)[C@@H](O)[C@H]2O)c(=O)n1` ?
Ans: 0.285 mg/kg/day

* * *

System: rodent lifetime carcinogenesis bioassay, tumor incidence TD50
protocol: carcinogenic potency in animals, long-term in vivo studies, CPDB compilation (AID 1745844)
measurementContext: mouse; strain B6C3F1; males; in feed; site: duodenum; lesion: adenocarcinoma in adenomatous polyp; dosed 80 weeks; study length 90 weeks
measuredEndpoint: TD50

Q: What value of TD50 has been recorded for this entry: O=C1C2CC=CCC2C(=O)N1SC(Cl)(Cl)Cl (stereo unspecified)
Ans: 15100 mg/kg/day

* * *

Tested on: rodent lifetime carcinogenesis bioassay, tumor incidence TD50
protocol: carcinogenic potency in animals, long-term in vivo studies, CPDB compilation (AID 1745844)
measurementContext: mouse; strain B6C3F1; females; by gavage; site: lung; lesion: alveolar/bronchiolar adenoma; dosed 104 weeks; study length 106 weeks
measuredEndpoint: TD50

Q: Checklist item: TD50 tested on rodent lifetime carcinogenesis bioassay, tumor incidence TD50, entry `ClC=CCCl` , value?
Ans: 149 mg/kg/day

* * *

Test system: rodent lifetime carcinogenesis bioassay, tumor incidence TD50
protocol: carcinogenic potency in animals, long-term in vivo studies, CPDB compilation (AID 1745844)
measurementContext: rat; strain Fischer 344; females; in feed; site: mammary gland; lesion: adenocarcinoma, NOS + adenoma, NOS; dosed 103 weeks; study length 104 weeks
measuredEndpoint: TD50

Q: Item `N=C1C=CC(=C(c2ccc(N)cc2)c2ccc(N)cc2)C=C1` has what recorded TD50?
Ans: 156 mg/kg/day

* * *

System: rodent lifetime carcinogenesis bioassay, tumor incidence TD50
protocol: carcinogenic potency in animals, long-term in vivo studies, CPDB compilation (AID 1745844)
measurementContext: rat; strain F344/DuCrj; females; in drinking water; site: any site (literature study); lesion: several types; types named in the paper; dosed 103 weeks; study length 111 weeks
measuredEndpoint: TD50 (mg/kg/day)
Give bare numbers, in mg/kg/day.

Q: Which TD50 is reported for this molecule? `CCN(N=O)C(N)=O`
Ans: 0.0687

* * *

Tested on: rodent lifetime carcinogenesis bioassay, tumor incidence TD50
protocol: carcinogenic potency in animals, long-term in vivo studies, CPDB compilation (AID 1745844)
measurementContext: rat; strain Long-Evans; males; in feed; site: any site (literature study); lesion: several types; types named in the paper; dosed 78 weeks; study length 104 weeks
Activity calls are given as the source filed them. The rule behind the calls is not given here.
measuredEndpoint: TD50

Q: Can you look up the measured TD50 of CC(C)NCC(O)c1ccc(NS(C)(=O)=O)cc1 (stereo unspecified) for me?
Ans: 796 mg/kg/day (inactive)

* * *

Test system: rodent lifetime carcinogenesis bioassay, tumor incidence TD50
protocol: carcinogenic potency in animals, long-term in vivo studies, CPDB compilation (AID 1745844)
measurementContext: mouse; strain Swiss/ICR; males; inhaled; site: liver; lesion: several types; types named in the paper; dosed 78 weeks; study length 82 weeks
Active and inactive are the calls of the source. How the calls were made is not given here.
measuredEndpoint: TD50

Q: Fill in the blank: the reported TD50 of FC(F)OC(F)(F)C(F)Cl (stereo unspecified) is ____.
Ans: 11700 mg/kg/day (inactive)

* * *

Test system: rodent lifetime carcinogenesis bioassay, tumor incidence TD50
protocol: carcinogenic potency in animals, long-term in vivo studies, CPDB compilation (AID 1745844)
measurementContext: mouse; strain B6C3F1; males; in feed; site: forestomach; lesion: squamous-cell carcinoma; dosed 96 weeks; study length 104 weeks
measuredEndpoint: TD50

Q: Any idea what TD50 came out for `c1ccc2c(c1)[nH]c1ccccc12` on rodent lifetime carcinogenesis bioassay, tumor incidence TD50?
Ans: 4940 mg/kg/day

* * *

Test system: rodent lifetime carcinogenesis bioassay, tumor incidence TD50
protocol: carcinogenic potency in animals, long-term in vivo studies, CPDB compilation (AID 1745844)
measurementContext: mouse; strain B6C3F1; males; by gavage; site: any site (literature study); lesion: several types; types named in the paper; dosed 104 weeks; study length 104 weeks
Active and inactive are the calls of the source. The rule behind the calls is not given here.
measuredEndpoint: TD50

Example cases with answers are listed next.
{"compound": "O=P(OCCCl)(OCCCl)OCCCl", "TD50": "807 mg/kg/day"}
{"compound": "Clc1cc2c(cc1Cl)Oc1cc(Cl)c(Cl)cc1O2", "TD50": "0.000141 mg/kg/day"}
{"compound": "CCOC(=O)[C@H](CCc1ccccc1)N[C@@H](C)C(=O)N1Cc2ccccc2C[C@H]1C(=O)O", "TD50": "221 mg/kg/day (inactive)"}
{"compound": "C=C1C/C(=C/C)C(=O)O[C@@H]2CCN3CC=C(COC(=O)[C@@]1(O)CO)[C@H]23", "TD50": "1.09 mg/kg/day"}
{"compound": "COC1COC(OC2COC(OC3COC(OC4COC(OC)C(OS(=O)(=O)O)C4OS(=O)(=O)O)C(OC4OC(C(=O)O)C(OC)C(OS(=O)(=O)O)C4OS(=O)(=O)O)C3OS(=O)(=O)O)C(OS(=O)(=O)O)C2OS(=O)(=O)O)C(OS(=O)(=O)O)C1OS(=O)(=O)O (configuration not stated)", "TD50": "297 mg/kg/day"}
{"compound": "C=C(Cl)Cl", "TD50": "34.8 mg/kg/day (inactive)"}

Now look at this one.
Q: What is its TD50 for rodent lifetime carcinogenesis bioassay, tumor incidence TD50? Entry: `C/C=C/C=C/C=O`
Ans: 279 mg/kg/day

* * *

Test system: rodent lifetime carcinogenesis bioassay, tumor incidence TD50
protocol: carcinogenic potency in animals, long-term in vivo studies, CPDB compilation (AID 1745844)
measurementContext: rat; strain Fischer 344; males; by gavage; site: kidney; lesion: tubule adenoma; dosed 64 weeks; study length 104 weeks
measuredEndpoint: TD50 (mg/kg/day)
Give bare numbers, in mg/kg/day.

Q: Lab note: need TD50 for `O=C1CCc2ccccc2O1` on rodent lifetime carcinogenesis bioassay, tumor incidence TD50, anyone have it?
Ans: 408

* * *

Test system: rodent lifetime carcinogenesis bioassay, tumor incidence TD50
protocol: carcinogenic potency in animals, long-term in vivo studies, CPDB compilation (AID 1745844)
measurementContext: rat; strain Wistar; females; in feed; site: urinary bladder; lesion: transitional-cell carcinoma; dosed 75 weeks; study length 75 weeks
measuredEndpoint: TD50

Q: Notebook entry, rodent lifetime carcinogenesis bioassay, tumor incidence TD50 assay: TD50 of `COc1cc2c(cc1N)oc1ccccc12` = ?
Ans: 97.7 mg/kg/day

* * *

Tested on: rodent lifetime carcinogenesis bioassay, tumor incidence TD50
protocol: carcinogenic potency in animals, long-term in vivo studies, CPDB compilation (AID 1745844)
measurementContext: rat; strain F344/DuCrj; males; in drinking water; site: lung; lesion: adenocarcinoma; dosed 99 weeks; study length 111 weeks
measuredEndpoint: TD50 (mg/kg/day)
One number for each entry, in mg/kg/day.

Q: Param item = `CCN(N=O)C(N)=O` ; retrieve measured TD50.
Ans: 2

* * *

Tested on: rodent lifetime carcinogenesis bioassay, tumor incidence TD50
protocol: carcinogenic potency in animals, long-term in vivo studies, CPDB compilation (AID 1745844)
measurementContext: mouse; strain Crj:BDF1; females; inhaled; site: lymph node; lesion: malignant lymphoma; dosed 104 weeks; study length 105 weeks
The source made the active and inactive calls. How the calls were made is not given here.
measuredEndpoint: TD50

Q: Write down the reported TD50 of `CBr` , test system: rodent lifetime carcinogenesis bioassay, tumor incidence TD50.
Ans: 845 mg/kg/day (inactive)

* * *

Tested on: rodent lifetime carcinogenesis bioassay, tumor incidence TD50
protocol: carcinogenic potency in animals, long-term in vivo studies, CPDB compilation (AID 1745844)
measurementContext: rat; strain Wistar; males; in feed; site: adrenal gland; lesion: cortical adenoma; dosed 104 weeks; study length 104 weeks
The source made the active and inactive calls. No rule for the calls is given here.
measuredEndpoint: TD50

Q: Fill in the recorded TD50 for this molecule, with rodent lifetime carcinogenesis bioassay, tumor incidence TD50 as test system: C[C@@H]1CCC[C@H](C)N1CCCC(O)(c1ccccc1)c1ccccn1 (stereo partly specified)
Ans: 104 mg/kg/day (inactive)

* * *

Test system: rodent lifetime carcinogenesis bioassay, tumor incidence TD50
protocol: carcinogenic potency in animals, long-term in vivo studies, CPDB compilation (AID 1745844)
measurementContext: rat; strain Fischer 344; females; inhaled; site: liver; lesion: hepatocellular adenoma; dosed 105 weeks; study length 105 weeks
The source made the active and inactive calls. The rule behind the calls is not given here.
measuredEndpoint: TD50

Q: # input molecule: `ClC=CCCl` ; wanted: its TD50
Ans: 1590 mg/kg/day (inactive)

* * *

Test system: rodent lifetime carcinogenesis bioassay, tumor incidence TD50
protocol: carcinogenic potency in animals, long-term in vivo studies, CPDB compilation (AID 1745844)
measurementContext: rat; strain Fischer 344/Mai fBR; males; inhaled; site: brain; lesion: astrocytoma; dosed 76 weeks; study length 78 weeks
measuredEndpoint: TD50

Q: Query: TD50; subject: `C1CO1`
Ans: 102 mg/kg/day

Origin of measurements: PubChem BioAssay AID1745844
